List of Kd values.
Target: T1, EsCas13d, nuclease-dead (Eubacterium siraeum, UniProt B0MS50, R295A;H300A;R849A;H854A)
T1 sequence: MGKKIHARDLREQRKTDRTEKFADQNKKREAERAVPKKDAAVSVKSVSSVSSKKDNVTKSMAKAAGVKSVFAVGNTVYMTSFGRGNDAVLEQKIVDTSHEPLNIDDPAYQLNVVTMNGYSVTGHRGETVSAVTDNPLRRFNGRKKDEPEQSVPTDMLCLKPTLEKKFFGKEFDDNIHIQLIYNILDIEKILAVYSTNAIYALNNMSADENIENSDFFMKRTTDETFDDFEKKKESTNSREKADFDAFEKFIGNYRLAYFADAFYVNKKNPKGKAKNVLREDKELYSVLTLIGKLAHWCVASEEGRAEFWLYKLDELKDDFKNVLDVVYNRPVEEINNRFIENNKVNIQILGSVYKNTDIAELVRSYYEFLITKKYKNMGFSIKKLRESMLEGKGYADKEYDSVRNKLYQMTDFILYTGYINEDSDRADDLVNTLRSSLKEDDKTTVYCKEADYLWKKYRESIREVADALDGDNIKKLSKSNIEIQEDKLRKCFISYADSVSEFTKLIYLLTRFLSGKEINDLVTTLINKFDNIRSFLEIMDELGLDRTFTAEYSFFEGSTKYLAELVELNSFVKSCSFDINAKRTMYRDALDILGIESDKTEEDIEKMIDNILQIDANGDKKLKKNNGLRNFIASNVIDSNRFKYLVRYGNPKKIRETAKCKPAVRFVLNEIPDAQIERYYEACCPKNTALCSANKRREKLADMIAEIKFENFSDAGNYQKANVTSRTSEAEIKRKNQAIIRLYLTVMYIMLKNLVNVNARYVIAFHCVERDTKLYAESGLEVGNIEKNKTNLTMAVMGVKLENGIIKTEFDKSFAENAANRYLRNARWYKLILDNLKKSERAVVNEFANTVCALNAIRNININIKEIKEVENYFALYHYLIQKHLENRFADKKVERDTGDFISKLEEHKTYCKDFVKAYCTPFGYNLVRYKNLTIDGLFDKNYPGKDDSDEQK
Experiment: crRNA (strand 1, pre-loaded); Mg2+; 40 mM Tris-HCl pH 7.5, 150 mM NaCl, 6 mM MgCl2, 1 mM DTT, 0.1% Tween-20, 0.2 mg/ml BSA; 25 C; 10 min per concentration, then washed
Details: tags: His6-TwinStrep-SUMO cleaved; N-terminal SNAP kept (SNAP-Surface 488); label: 3' end held by stalled T7 RNA polymerase

| Binder | Kd, nM |
| --- | --- |
| target 1 A1U (mixed) RNA 1: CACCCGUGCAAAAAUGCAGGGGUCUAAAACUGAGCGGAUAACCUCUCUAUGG RNA 2: GGGAAUGGAUCCACAUCUACGAAUUCGUACCAUAGAGAGGUUAUCCGCUCUCCGAGAUCGGAAGAGCACACGU | 8.5 |
| target 1 insG 3' of 18,insU 3' of 9 (mixed) RNA 1: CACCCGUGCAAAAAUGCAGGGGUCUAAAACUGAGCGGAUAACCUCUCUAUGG RNA 2: GGGAAUGGAUCCACAUCUACGAAUUCGUACCAUAGGAGAGGUUAUUCCGCUCACCGAGAUCGGAAGAGCACACGU | 71 |
| target 2 MT 5'PFS UGU 3'PFS UCG (mixed) RNA 1: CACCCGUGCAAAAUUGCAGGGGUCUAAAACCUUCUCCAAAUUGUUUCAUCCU RNA 2: GGGAAUGGAUCCACAUCUACGAAUUCUGUAGGAUGAAACAAUUUGGAGAAGUCGAGAUCGGAAGAGCACACGU | 15.8 |
| target 1 insU 3' of 6,insA 3' of 3 (mixed) RNA 1: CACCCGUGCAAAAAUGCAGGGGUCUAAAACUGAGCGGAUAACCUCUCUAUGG RNA 2: GGGAAUGGAUCCACAUCUACGAAUUCGUACCAUAGAGAGGUUAUCCUGCUACACCGAGAUCGGAAGAGCACACGU | 8.07 |
